Test system: A549 cells
assay-summary: Cell-titer-Glo cell viability, A549 cells
Assay type: cell-based, human
assay-conditions: Homo sapiens, A549, read-out: EC50, cell viability
Structures can show the parent of a compound that is named as a salt.
reported-property: EC50 (nM)

compound	unit-text	reported-value
C=CCNc1c(O)cc2c(O)c1C[C@@H](C)C[C@H](OC)[C@H](O)[C@@H](C)/C=C(\C)[C@H](OC(N)=O)[C@@H](OC)/C=C\C=C(/C)C(=O)N2 [IPI-504, retaspimycin hydrochloride]	nM	59.9

====

Each entry below lists one item and its recorded log10(AC50) value.
target-entity: PKM2 (Homo sapiens, UniProt P14618)
Sequence (P14618 whole entry): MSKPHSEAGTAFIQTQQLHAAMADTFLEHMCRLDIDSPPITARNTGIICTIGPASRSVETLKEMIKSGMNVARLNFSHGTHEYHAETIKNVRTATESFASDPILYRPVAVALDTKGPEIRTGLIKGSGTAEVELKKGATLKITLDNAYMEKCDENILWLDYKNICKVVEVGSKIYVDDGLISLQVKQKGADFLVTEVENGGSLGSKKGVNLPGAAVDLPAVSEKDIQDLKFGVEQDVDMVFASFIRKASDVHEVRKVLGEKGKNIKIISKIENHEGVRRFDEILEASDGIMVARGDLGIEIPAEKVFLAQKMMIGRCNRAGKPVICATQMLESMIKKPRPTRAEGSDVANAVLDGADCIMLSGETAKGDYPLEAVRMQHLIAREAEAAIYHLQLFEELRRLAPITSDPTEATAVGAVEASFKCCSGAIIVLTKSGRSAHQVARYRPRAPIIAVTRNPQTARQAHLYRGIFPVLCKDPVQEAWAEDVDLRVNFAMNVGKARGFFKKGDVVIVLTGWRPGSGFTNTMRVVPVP
assay-summary: PKM2 activation biochemical assay (AC50 / max. response vs fructose 1,6-bisphosphate)
assay-conditions: biochemical assay; read-out: PKM2 AC50
reported-property: log10(AC50) (log10 of the value in nM)

compound	log10(AC50)
O=C(c1cc(C(F)(F)F)n[nH]1)N(CCC1CCCCO1)Cc1ccccc1Cl (centres unmarked)	4.70
CCCN(CC)CCN(Cc1ccccc1Cl)C(=O)c1cc(C(F)(F)F)n[nH]1	1.72
O=C(c1cc(C(F)(F)F)n[nH]1)N(Cc1ccccc1F)CC1COC1	4.08
O=C(c1cc(C(F)(F)F)n[nH]1)N(CCC1CCS(=O)(=O)CC1)Cc1c(F)cccc1F	1.81
CCCCCN(Cc1ccccc1)C(=O)c1cc(C(F)(F)F)n[nH]1	2.96
CCOCCN(Cc1c(Cl)cccc1Cl)C(=O)c1cc(C(F)(F)F)n[nH]1	3.94
O=C(c1cc(C(F)(F)F)n[nH]1)N(Cc1cccc2[nH]ccc12)CC1COC1	3.51
Nc1cccc(CN(CCN2CCS(=O)(=O)CC2)C(=O)c2cc(C(F)(F)F)n[nH]2)c1	3.03
